// reported Kd per item
Biological target: T1, 13 AA stub (a.a. 291-303 of SEQ ID NO: 247) (human)
T1 peptide: YLVLDLSMQEALS
Test: SPR, mAb captured, peptide injected
Please respond with the number in nM and leave the unit unwritten.

| binder | reported-endpoint | result-unit | value-observed |
| --- | --- | --- | --- |
| MSLNB569 (antibody, V domains shown, mAb; also called MSLNB569.001; MSNB569) VH: QVQLQQSGPGLVKPSQTLSLTCAISGDSVSSTRAAWNWIRQSPSRGLEWLGRTYYRSKWYNDYTVSVKSRITINPDTSKNQFSLHLNSVTPEDSAVYFCARGNVGRVDFWGQGTLVTVSS VL: EIVMTQSPLSLPVTPGEPASISCRSSQSLLHSDGYNYLDWYLQKPGQSPQLLIYLGSNRASGVPDRFSGSGSDTDFTLKISRVEAEDVGVYYCMQGLRTPLTFGPGTKVDIK | Kd | nM | 5.99 |
| MSNB124 (antibody, V domains shown, mAb) VH: QVQLQQSGPGLVKPSQTLSLTCAISGDSVSSNSVAWHWIRQSPSRGLEWLGRTYHRSKWYNDYAVSVKSRITINPDTSKNQFSLQLNSVTPEDTAVYYCARQILGALDYWGQGTLVTVSS VL: DIVMTQTPLSLPVTPGEPASISCRSSQSLQFGNGNYLDWYLQKPGQSPQLLIYLGSNRASGVPDRFSGSGSGTDFTLKISRVEAEDVGVYYCMQVLQIPFTFGPGTKVDIK | Kd | nM | 14 |

Turning now to a further record.
# Kd (binder: MSNB71 (antibody, V domains shown, mAb from Ablexis mouse; also called MSNB71.004) VH: QVQLQQSGPGLVMSSQTLSLTCAISGDSVSSSSVAWNWIRQSPSRGLQWLGRTYFRSKWYYDYAVSVKSRITINPDTSKNQFSLQLNSVTPEDTAVYYCSRGIVGALDYWGQGTLVTVSS VL: DIVMTQSPLSLPVTPGEPASISCRSSQSLLFTNGYDSLDWYLQKPGQSPQLLIYLVSNRASGVPDRFSGSGSGTEFTLKISRVEADDVGVYFCMQGIRTPFTFGPGTKLEIK ) is 0.469
